Sourced from ChEMBL document CHEMBL5357033

System: RAW264.7
Assay: Cytotoxicity against mouse RAW264.7 cells measured after 24hrs by CCK-8 method relative to control
Type: toxicity, cell-based
Design: concentration or dose not given beside the values
Conditions: raw264.7, 24 h
So basically: Activity at 80% or higher? That is fulfilled. Lower than 80%? That is not fulfilled.

Identify whether the reported Activity of the following compound is 80% or greater: `C/C1=C\CC/C(CO)=C\[C@H]2[C@H](C[C@H]1O)C2(C)C`
fulfilled

Identify whether the reported Activity of the following compound is 80% or greater: `CC1(C)[C@H]2/C=C(/CO)CC[C@@H]3O[C@@]3(C)CC[C@@H]21`
not fulfilled

Identify whether the reported Activity of the following compound is 80% or greater: `C[C@H]1C[C@H](O)[C@@H]2[C@H]3[C@H]1OC(C)(C)[C@@H]3CC[C@@]2(C)O`
fulfilled

Identify whether the reported Activity of the following compound is 80% or greater: `CC1=C[C@@H]2[C@@H](C(C)C)CC[C@@](C)(O)[C@@H]2C[C@@H]1O`
fulfilled

Identify whether the reported Activity of the following compound is 80% or greater: `C/C1=C\CC/C(C=O)=C\[C@H]2[C@H](C[C@H]1O)C2(C)C`
fulfilled
